# target system: mouse Smoothened receptor (Mus musculus, UniProt P56726)
# Sequence (P56726 33-793): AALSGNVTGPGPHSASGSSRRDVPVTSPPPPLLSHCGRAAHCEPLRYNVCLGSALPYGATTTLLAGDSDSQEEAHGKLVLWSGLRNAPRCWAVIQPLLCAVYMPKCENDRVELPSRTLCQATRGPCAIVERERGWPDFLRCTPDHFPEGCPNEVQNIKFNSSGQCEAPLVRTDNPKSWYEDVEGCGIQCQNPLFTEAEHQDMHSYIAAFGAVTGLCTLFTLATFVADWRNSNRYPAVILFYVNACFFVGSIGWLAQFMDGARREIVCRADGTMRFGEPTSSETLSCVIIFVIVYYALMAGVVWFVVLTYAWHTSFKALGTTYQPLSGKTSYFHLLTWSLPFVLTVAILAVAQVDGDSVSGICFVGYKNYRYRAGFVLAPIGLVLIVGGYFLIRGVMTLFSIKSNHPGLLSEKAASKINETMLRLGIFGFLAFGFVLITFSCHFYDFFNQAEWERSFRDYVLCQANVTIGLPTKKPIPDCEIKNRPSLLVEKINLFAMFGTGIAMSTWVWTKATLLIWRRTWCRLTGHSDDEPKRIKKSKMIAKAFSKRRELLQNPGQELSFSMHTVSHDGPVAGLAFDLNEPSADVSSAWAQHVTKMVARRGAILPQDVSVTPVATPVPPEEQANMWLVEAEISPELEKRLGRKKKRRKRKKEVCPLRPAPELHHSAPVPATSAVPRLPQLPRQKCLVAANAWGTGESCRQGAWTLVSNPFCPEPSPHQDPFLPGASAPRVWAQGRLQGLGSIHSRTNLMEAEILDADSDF
# assay protocol: Smo binding assay, displacement of radio-labeled smoothened agonist, filter binding format (mouse)
# conditions used: examples of the present invention, exact values; read-out: Mouse Smo bdg., IC50
IC50 vs 6 nM: less than gives yes (1); not less than gives no (0).

[
  {
    "input smiles": "Cc1c(Cc2ccc(F)cc2)nnc(N2CCN(c3ccc(C(C)(C)O)cn3)CC2)c1C",
    "cat": "yes (1)"
  },
  {
    "input smiles": "CC[C@@H]1CN(c2nnc(Cc3ccccc3)c(C)c2C)CCN1c1cnc(C(C)(C)O)cn1",
    "cat": "no (0)"
  },
  {
    "input smiles": "Cc1c(Cc2ccccc2)nnc(N2CCN(c3ncc(C(C)(C)O)c(C(F)(F)F)n3)[C@H](C)C2)c1C",
    "cat": "yes (1)"
  },
  {
    "input smiles": "Cc1c(Cc2ccncc2)nnc(N2CCN(c3cnc(C(C)(C)O)cn3)[C@H](C)C2)c1C",
    "cat": "no (0)"
  },
  {
    "input smiles": "Cc1c(Cc2ccccc2)nnc(N2CCN(c3cnc(C(C)(C)O)cn3)[C@H](C)C2)c1C",
    "cat": "yes (1)"
  },
  {
    "input smiles": "CC(C)(O)c1ccc(N2CCN(c3nnc(Cc4ccc(F)cc4)c4c3CCCC4)CC2)nc1",
    "cat": "no (0)"
  },
  {
    "input smiles": "CCC(O)(CC)c1cnc(N2CCN(c3nnc(Cc4ccccc4)c(C)c3C)C[C@H]2C)cn1",
    "cat": "yes (1)"
  },
  {
    "input smiles": "Cc1c(Cc2ccc(F)cc2)nnc(N2CCN(c3ncc(C(C)(C)O)c(C(F)(F)F)n3)[C@H](C)C2)c1C",
    "cat": "yes (1)"
  },
  {
    "input smiles": "C[C@@H]1CN(c2nnc(Cc3ccccc3)c3c2CCC3)CCN1c1cc(C(F)(F)F)c(C(C)(C)O)cn1",
    "cat": "yes (1)"
  },
  {
    "input smiles": "Cc1c(Oc2ccccc2)nnc(N2CCN(c3cnc(C(C)(C)O)cn3)[C@H](C)C2)c1C",
    "cat": "no (0)"
  },
  {
    "input smiles": "C[C@@H]1CN(c2nnc(Cc3ccccc3)c3c2CCC3)CCN1c1cnc(C(C)(C)O)cn1",
    "cat": "yes (1)"
  },
  {
    "input smiles": "C[C@@H]1CN(c2nnc(Cc3ccc(F)cc3)c3c2CCC3)CCN1c1cc(C(F)(F)F)c(C(C)(C)O)cn1",
    "cat": "yes (1)"
  },
  {
    "input smiles": "C[C@@H]1CN(c2nnc(Cc3ccc(F)cc3)c3c2CCC3)CCN1c1ncc(C(C)(C)O)c(C(F)(F)F)n1",
    "cat": "yes (1)"
  },
  {
    "input smiles": "Cc1c(Cc2ccccc2)nnc(N2CCN(c3cnc(C(C)(C)O)cn3)[C@@H](C)C2)c1C",
    "cat": "no (0)"
  }
]

###

# target system: mouse Smoothened receptor (Mus musculus, UniProt P56726)
# assay protocol: Smo binding assay, displacement of radio-labeled smoothened agonist, filter binding format (mouse)
# conditions used: Table 10, values as ranges; read-out: Mouse Smo bdg., IC50
pIC50: −log10 of the molar value.
# pIC50 values compiled below
endpoint label: pIC50

[
  {
    "input smiles": "Cc1c(Cc2ccccc2)nnc(N2CCC(C)(c3nc4cnccc4[nH]3)CC2)c1C",
    "endpoint value": "7.60 to 9.00"
  },
  {
    "input smiles": "COC(=O)c1cnc(N2CCN(c3nnc(-c4ccc(F)c(Cl)c4)c(C)c3C)CC2)nc1C(F)(F)F",
    "endpoint value": "> 10.00"
  }
]
